Data provenance is PubChem BioAssay (NCI).

- System: M19-MEL melanoma
- Method: NCI tumour cell line growth inhibition, 48 h
TGI reference

Query: Entry COc1cc(C(C)c2cc3c(cc2OCCNC(=O)COc2cc4c(cc2C(C)c2cc(OC)c(OC)c(OC)c2)OCO4)OCO3)cc(OC)c1OC (stereo not given) : reported TGI = ?
Response: > 100 µM

Query: Entry c1ccc(SC23C4C5C6C4C2C6C53)nc1 (stereo not given) : reported TGI = ?
Response: > 100 µM

Query: Entry `Cc1nc(N)nc(N)c1CCCc1ccccc1` : reported TGI = ?
Response: > 100 µM

Query: Entry CNC(=O)SCC(NC(=O)CCC(N)C(=O)O)C(=O)NCC(=O)O (stereo not given) : reported TGI = ?
Response: > 100 µM

Query: Entry `COC1=CC(=O)C=C(OC)C1=O` : reported TGI = ?
Response: 8.19 µM

Query: Entry CCCCCCCC/C=C1\CCC(CN2CCOCC2)C1=O (stereo not given) : reported TGI = ?
Response: 26.3 µM

Query: Entry C=CCC1(C(=O)OC(C)(C)C)C(OC)=C(C(=O)OC(C)(C)C)C2C1C(C(=O)OC(C)(C)C)=C(OC)C2(CC=C)C(=O)OC(C)(C)C (stereo not given) : reported TGI = ?
Response: > 100 µM

Query: Entry `O=S(=O)(N=NC=C1c2ccccc2N(O)c2ccccc21)c1ccc(Cl)cc1` : reported TGI = ?
Response: > 100 µM

Query: Entry N/N=C(\c1nc2ccc(Cl)cc2[nH]c1=O)C(O)c1ccc(Cl)c(Cl)c1 (stereo not given) : reported TGI = ?
Response: > 100 µM

Query: Entry COc1cc2c(cc1Oc1c(Oc3c(O)c(OC)cc4c3C(CC(C)C)N(C)CC4)c(OC)cc3c1C(CC(C)C)N(C)CC3)C(CC(C)C)N(C)CC2 (stereo not given) : reported TGI = ?
Response: 2.58 µM

Query: Entry `O=C1CNC(=O)c2[nH]cnc2N1` : reported TGI = ?
Response: > 100 µM

Query: Entry Cc1ccc(S(=O)(=O)C2=c3nc4ccccc4cc3=C3C(=O)c4ccccc4C(=O)C32)cc1 (stereo not given) : reported TGI = ?
Response: > 100 µM

---

- Tested on: ACHN renal
- Method: NCI tumour cell line growth inhibition, 48 h
Measure: TGI

Recorded results for 5 compounds are shown here.
>  <Compound>
CCOC(=O)C(Cc1ccccc1)NC(=O)c1[nH]cnc1/N=N/N(C)C (stereo not drawn)

>  <Measure>
TGI

>  <Value Reported>
> 100 µM

$$$$
>  <Compound>
COC(=O)C1=C(O)CCCC(C2CCCCC(=O)C2C(=O)OC)=C1 (stereo not drawn)

>  <Measure>
TGI

>  <Value Reported>
> 100 µM

$$$$
>  <Compound>
Cc1c(C)c(C)c(-n2c(=O)n(C)c(=O)n2-c2cc(C(C)(C)C)cc(C(C)(C)C)c2O)c(C)c1C

>  <Measure>
TGI

>  <Value Reported>
24.8 µM

$$$$
>  <Compound>
O=c1c2cnccc2cc2c3ccccc3ccn12

>  <Measure>
TGI

>  <Value Reported>
> 100 µM

$$$$
>  <Compound>
O=C(c1cccs1)N1CCCN(C(=O)c2cccs2)C1=S

>  <Measure>
TGI

>  <Value Reported>
> 100 µM

$$$$

Query: Provide value of TGI for this record tested with ACHN renal: COC1CCC(OC)C(C2(C3CC(OC)CCC3OC)OC(=O)c3ccccc32)C1 (stereo not drawn)
Response: > 100 µM

Query: Provide value of TGI for this record tested with ACHN renal: `Nc1nc2cc(CC[C@H]3C[C@@H](n4ccc5c(N)ncnc54)[C@H](O)[C@@H]3O)ccc2cc1Br`
Response: 28.5 µM

Query: Provide value of TGI for this record tested with ACHN renal: Cc1ccc(S(=O)(=O)N/N=C2\CC3CC4CCC2C4C3)cc1 (stereo not drawn)
Response: > 100 µM

---

- Test system: KM20L2 colon
- Method: NCI tumour cell line growth inhibition, 48 h
Measure: TGI

>  <Compound>
COc1cc2c(cc1OC)C1Cc3ccc(OC)c(OC)c3C[N+]1([O-])CC2 (stereo not drawn)

>  <Value Reported>
> 100 µM

$$$$
>  <Compound>
CC(C)c1cccc(O)c(=O)c1

>  <Value Reported>
> 100 µM

$$$$

Query: Entry `COc1cc(NS(C)(=O)=O)ccc1NCc1c2ccccc2nc2ccccc12` : reported TGI = ?
Response: > 100 µM

---

- System: A549 NSCLC
- Method: NCI tumour cell line growth inhibition, 48 h
TGI reference

>  <Molecule>
Cc1[nH]c(N)nc(=S)c1CCC(=O)O

>  <System Name>
A549 NSCLC

>  <TGI>
> 100 µM

$$$$
>  <Molecule>
COc1cc2c(cc1OC)C1Cc3ccc(OC)c(OC)c3C[N+]1([O-])CC2 (stereo not drawn)

>  <System Name>
A549 NSCLC

>  <TGI>
> 100 µM

$$$$
>  <Molecule>
COc1ccc(-c2ncn(C[Si](C)(C)C)c2-c2ccc(OC)cc2)cc1

>  <System Name>
A549 NSCLC

>  <TGI>
27.2 µM

$$$$
>  <Molecule>
NC(N)=NC(N)=NCCCc1ccco1

>  <System Name>
A549 NSCLC

>  <TGI>
> 500 µM

$$$$
>  <Molecule>
O=C(/C=C1\C(=O)N(Cc2ccccc2)c2ccccc21)c1ccc(OCCN2CCCCC2)cc1

>  <System Name>
A549 NSCLC

>  <TGI>
21.6 µM

$$$$

Query: Entry `O=C(O)/C(=C\c1ccc(O)cc1)c1cccc2ccccc12` : reported TGI = ?
Response: > 100 µM

Query: Entry COc1ccc2c(c1)NC1(O)c3ccccc3C(=O)C21O (stereo not drawn) : reported TGI = ?
Response: > 100 µM

Query: Entry Cc1cccc(C)c1N1C(=O)C(=O)C(c2nc3ccccc3s2)/C(=N/NC(=O)c2ccccc2O)C1=O (stereo not drawn) : reported TGI = ?
Response: > 100 µM

---

- Test system: OVCAR-4 ovarian
- Method: NCI tumour cell line growth inhibition, 48 h
GI50 reference

Recorded results for 4 compounds are shown here.
>  <Compound>
O=C(Nc1ccc(F)cc1)Nc1ccc(Br)c(C(F)(F)F)c1

>  <GI50>
2130 nM

$$$$
>  <Compound>
O=C(c1ccco1)c1c(C(F)(F)F)n([O-])c2cc(C(F)(F)F)ccc2[n+]1=O

>  <GI50>
1350 nM

$$$$
>  <Compound>
O=CN1N=C(c2cccc(Nc3ccnc4cc(Cl)ccc34)c2)CC1c1ccccc1 (stereo not given)

>  <GI50>
536 nM

$$$$
>  <Compound>
Cn1nc(C(F)(F)F)c(-c2cc(C(F)(F)F)cc(C(F)(F)F)c2)c1-c1ccc(OCc2ccc(Cl)cc2)cc1O

>  <GI50>
2680 nM

$$$$

We now examine a further compound.
Query: Entry `CCCCCCCCCCCCCCCCOP(=O)([O-])OCC[N+](C)(C)C` : reported GI50 = ?
Response: 2880 nM

---

- System: MDA-MB-231 breast
- Method: NCI tumour cell line growth inhibition, 48 h
TGI reference
// note: answer is a bare numeric in µM

Recorded results for 5 compounds are shown here.
>  <Compound>
O=C1C(=O)c2ccccc2C(O)=C1CCCc1ccc(C2CCCCC2)cc1

>  <Uom>
µM

>  <Value Reported>
31

$$$$
>  <Compound>
O=C(c1ccccc1)c1c(C(F)(F)F)n([O-])c2cc(C(F)(F)F)ccc2[n+]1=O

>  <Uom>
µM

>  <Value Reported>
3.11

$$$$
>  <Compound>
CC(=O)O[C@H]1C(=O)[C@@]2(C)[C@H]([C@H](OC(=O)c3ccccc3)[C@]3(O)C[C@H](OC(=O)[C@H](O)[C@@H](NC(=O)c4ccccc4)c4cccc(N(C)C)c4)C(C)=C1C3(C)C)[C@]1(OC(C)=O)CO[C@@H]1C[C@@H]2O

>  <Uom>
µM

>  <Value Reported>
36.1

$$$$
>  <Compound>
CN(C)CCCC1(c2ccc(F)cc2)OCc2cc(-c3cc4ccccc4s3)ccc21 (stereo not drawn)

>  <Uom>
µM

>  <Value Reported>
2.95

$$$$
>  <Compound>
O=C(C#Cc1ccccc1)C1=Cc2ccccc2OC1

>  <Uom>
µM

>  <Value Reported>
10.5

$$$$

Query: Provide value of TGI for this record tested with MDA-MB-231 breast: `COC1=C(Cl)C(=O)c2c(O)ccc(O)c2C1=O`
Response: 3.19

Query: Provide value of TGI for this record tested with MDA-MB-231 breast: `CCCCCCCC(=O)SCC/C=C/[C@@H]1CC(=O)NCc2nc(cs2)C2=N[C@@](C)(CS2)C(=O)N[C@@H](C(C)C)C(=O)N1`
Response: 31.5

Query: Provide value of TGI for this record tested with MDA-MB-231 breast: O=C(c1cccnc1)N1N=C(c2ccccc2)CC1(O)c1cc(F)c(Cl)cc1Cl (stereo not drawn)
Response: 35.4

Query: Provide value of TGI for this record tested with MDA-MB-231 breast: `CN(C)CCOc1ccc(-c2c(Oc3ccccc3)c(=O)oc3ccccc23)cc1`
Response: 18.8

Query: Provide value of TGI for this record tested with MDA-MB-231 breast: CCCCCCCC/C=C1\CCC(CN2CCOCC2)C1=O (stereo not drawn)
Response: 4.42

Query: Provide value of TGI for this record tested with MDA-MB-231 breast: `CN(CCCNC(=O)c1nn(C)c2c1Cc1ccccc1-2)CCCNC(=O)c1nn(C)c2c1Cc1ccccc1-2`
Response: 36.1

Query: Provide value of TGI for this record tested with MDA-MB-231 breast: `Nc1nc2cc(CC[C@H]3C[C@@H](n4ccc5c(N)ncnc54)[C@H](O)[C@@H]3O)ccc2cc1Br`
Response: 24.4

Query: Provide value of TGI for this record tested with MDA-MB-231 breast: CC1SC2(CCCCC2)N(NC(=O)CSc2nc3ccc(Cl)cc3c(=O)n2-c2ccccc2)C1=O (stereo not drawn)
Response: 35

Query: Provide value of TGI for this record tested with MDA-MB-231 breast: `C[C@H]1CNC(=O)c2cnn3ccc(nc23)N[C@H](C)c2cc(F)ccc2O1`
Response: 13

Query: Provide value of TGI for this record tested with MDA-MB-231 breast: `COc1ccc(/C=C2\SC(=Nc3ccccc3)NC2=O)cc1`
Response: 38.7
